# experimentalSystem: human LCE (Homo sapiens)
# Sequence (Q9H5J4 1-265): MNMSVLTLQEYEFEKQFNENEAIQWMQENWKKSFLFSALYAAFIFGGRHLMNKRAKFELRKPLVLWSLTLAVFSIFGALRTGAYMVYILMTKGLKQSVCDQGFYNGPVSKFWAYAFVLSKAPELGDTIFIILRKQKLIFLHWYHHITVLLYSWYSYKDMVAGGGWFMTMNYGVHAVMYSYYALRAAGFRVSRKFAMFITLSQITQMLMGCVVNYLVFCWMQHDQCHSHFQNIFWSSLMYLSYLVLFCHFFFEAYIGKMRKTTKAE
Would you mind telling me the reported IC50 of each entry?
Write the figure, then the unit, nothing else.

QUERY: Provide the documented IC50 with human LCE (Homo sapiens) as the system for CC(C)Oc1ccc(NC(=O)c2cccc(S(=O)(=O)N3CCC[C@@H]3C)c2)cc1
RESULT: 130 nM

QUERY: // lookup IC50 | system=human LCE (Homo sapiens) | key= COc1ccc(S(=O)(=O)N2CCCCC2)cc1C(=O)Nc1ccc(C(C)C)cc1
RESULT: 31 nM

QUERY: // lookup IC50 | system=human LCE (Homo sapiens) | key= O=C(Nc1ccc(OC2CCCC2)cc1F)c1cccc(S(=O)(=O)c2ccccn2)c1
RESULT: 240 nM

QUERY: Lab request: please report IC50 under test system human LCE (Homo sapiens) for CC(C)Oc1ccc(NC(=O)c2cccc(S(=O)(=O)c3nc[nH]n3)c2)cc1
RESULT: 5100 nM

QUERY: Param readout = IC50; param system = human LCE (Homo sapiens); param query = CC(C)c1ccc(NC(=O)c2cccc(S(=O)(=O)N3[C@H](C)CC[C@H]3C)c2)cc1 ; response: value
RESULT: 3500 nM

QUERY: What IC50 appears in the records for this compound with human LCE (Homo sapiens)? CC(C)c1ccc(NC(=O)c2cccc(S(=O)(=O)N3CCCC(O)C3)c2)cc1 (centres unmarked)
RESULT: 100 nM

QUERY: Write down the reported IC50 of CC(C)c1ccc(NC(=O)c2cccc(S(=O)(=O)c3ccccc3)n2)cc1 , test system: human LCE (Homo sapiens).
RESULT: 1400 nM

QUERY: Recorded IC50 for CC(C)(O)c1ccc(NC(=O)c2cccc(S(=O)(=O)N3CCCCC3)c2)cc1 with human LCE (Homo sapiens), please?
RESULT: 5100 nM

----------
# experimentalSystem: human LCE (Homo sapiens, UniProt Q9H5J4)
Where a name gives a salt, the structure may show the parent alone.
I'd appreciate it if you could supply pIC50 values for the items below.
Note on pIC50: it is the negative log10 of concentration, concentration in mol/L.

QUERY: What pIC50 value was documented for this molecule, O=C(Nc1ccon1)c1cccc(S(=O)(=O)N2CCCCC2)c1 ?
RESULT: 5.14

QUERY: Need pIC50, item CC(C)Oc1ccc(NC(=O)c2cccc(S(=O)(=O)N3CCc4[nH]ncc4C3)c2)cc1 [Example 3, trifluoroacetate]
RESULT: 5.13

QUERY: Entry under review: COc1cc(Sc2ccccc2)cnc1NC(=O)c1cccc(S(=O)(=O)N2CCCC2)c1 . Reported pIC50?
RESULT: 6.60

QUERY: Entry COc1ccc(S(=O)(=O)N2CCCCC2)cc1C(=O)Nc1ncccc1OC has what pIC50?
RESULT: 6.82

QUERY: May I ask what pIC50 has been recorded for CC(C)Oc1ccc(NC(=O)c2cccc(S(=O)(=O)N3CCCCC3)c2)cc1 ?
RESULT: 7.51

QUERY: What value of measured pIC50 is listed for COc1cccnc1NC(=O)c1cccc(S(=O)(=O)c2ccccn2)c1 ?
RESULT: 6.41

QUERY: Please give the measured pIC50 for this molecule: COc1ccccc1NC(=O)c1cccc(S(=O)(=O)N2CCCCC2)c1
RESULT: 7.36

QUERY: Can you look up the measured pIC50 of CC(C)c1ccc(NC(=O)c2cccc(S(=O)(=O)N3CCCC(CO)C3)c2)cc1 (stereo not drawn) for me?
RESULT: 7.18

QUERY: Please look up its pIC50: CC(C)c1ccc(NC(=O)c2cccc(S(=O)(=O)c3ccccc3)c2)cc1
RESULT: 6.80

QUERY: Look up pIC50: CC(C)c1ccc(NC(=O)c2cccc(S(=O)(=O)c3ccccn3)c2)cc1
RESULT: 6.74

QUERY: Name the recorded pIC50 for O=C(Nc1ncccc1O)c1cccc(S(=O)(=O)N2CCCCC2)c1 .
RESULT: 6.59

QUERY: Can you share its pIC50? I mean this molecule: O=C(N[C@H]1CCCc2ccccc21)c1cccc(S(=O)(=O)N2CCCCC2)c1
RESULT: 5.30

QUERY: Fill in the blank: the reported pIC50 of O=C(Nc1ccc(Oc2ccccc2)cc1)c1cccc(S(=O)(=O)N2CCCCC2)c1 is ____.
RESULT: 6.68

QUERY: Need pIC50 of CC(C)c1ccc(NC(=O)c2cccc(S(=O)(=O)c3ccc(F)cc3)c2)cc1 , thanks.
RESULT: 6.16

QUERY: What does the record list as pIC50 for COc1cccnc1NC(=O)c1cccc(S(=O)(=O)N2C3CCC2CC3)c1 ?
RESULT: 6.03

QUERY: Consider the molecule shown here: COc1cc(S(=O)(=O)c2ccccc2)cnc1NC(=O)c1cccc(S(=O)(=O)N2CCCC2)c1 What is its recorded pIC50?
RESULT: 5.02

QUERY: Fill in: pIC50 of CC(C)Oc1ccc(NC(=O)c2cccc(S(=O)(=O)N3CCCCC3)c2)cn1 is ___
RESULT: 7.41

QUERY: Using the record for COc1ccc(NC(=O)c2cccc(S(=O)(=O)C3CCCCC3)c2)cc1 , report its pIC50.
RESULT: 5.96

QUERY: I have this molecule here, CC(C)Oc1cc(NC(=O)c2cccc(S(=O)(=O)N3CCCC3)c2)[nH]n1 [Example 70, hydrochloride] , and I need its recorded pIC50.
RESULT: 8.17

QUERY: Need pIC50, item CC(C)c1ccc(NC(=O)c2cccc(S(=O)(=O)N3[C@H](C)CCC[C@@H]3C)c2)cc1
RESULT: 5.55

QUERY: // returns reported pIC50 for input CNC(=O)C1CCCN(S(=O)(=O)c2cccc(C(=O)Nc3ncccc3OC)c2)C1 (stereo not drawn)
RESULT: 5.96

QUERY: Suppose we examine the molecule CC(C)Oc1ccc(NC(=O)c2cccc(S(=O)(=O)N3CCCC(c4nc5ccccc5[nH]4)C3)c2)cc1 (stereo not drawn) ; what pIC50 value has been reported?
RESULT: 7.52

QUERY: Query: pIC50; subject: COc1cccnc1NC(=O)c1cccc(S(=O)(=O)N2CCCCC2)c1
RESULT: 7.44

QUERY: Form field: reported pIC50 of CC(C)Oc1ccc(NC(=O)c2cccc(S(=O)(=O)N3C[C@@H]4C[C@H]3CN4C)c2)cc1 [Example 8, trifluoroacetate]
RESULT: 5.02

QUERY: What measured pIC50 goes with O=C(Nc1cc(C2CC2)n[nH]1)c1cccc(S(=O)(=O)N2CCCCC2)c1 ?
RESULT: 7.08

QUERY: Suppose we examine the molecule CC(C)Oc1ccc(NC(=O)CCc2cccc(S(=O)(=O)N3CCCCC3)c2)cc1 ; what pIC50 value has been reported?
RESULT: 5.82

QUERY: Need pIC50 of CC(C)Oc1ccc(NC(=O)c2cccc(S(=O)(=O)N3CCCC(c4nc5ccccc5o4)C3)c2)cc1 (stereo not drawn) , thanks.
RESULT: 7.29

QUERY: Fill in the blank: the reported pIC50 of CC(C)c1ccc(NC(=O)c2cccc(S(=O)(=O)N3CCCCC3)c2)cc1 is ____.
RESULT: 7.47

QUERY: Which pIC50 is listed for COc1cccnc1NC(=O)c1cccc(S(=O)(=O)c2ccccc2)c1 ?
RESULT: 6.29

QUERY: What value of pIC50 has been reported for the following molecule? CC(C)c1ccc(NC(=O)c2cccc(S(=O)(=O)N3CCCC3)c2)cc1
RESULT: 6.77

QUERY: Quick one: pIC50 of CC(C)Oc1ccc(NC(=O)c2cccc(S(=O)(=O)N3CCCC(OCc4ccccn4)C3)c2)cc1 (stereo not drawn) [Example 21, trifluoroacetate] ?
RESULT: 6.70

QUERY: Need pIC50, item COc1cccnc1NC(=O)c1cccc(S(=O)(=O)N2CCCC2)c1
RESULT: 6.80

QUERY: Any idea what its pIC50 is? The molecule is CC(C)Oc1cc(NC(=O)c2cccc(S(=O)(=O)N3CCC(F)(F)CC3)c2)[nH]n1 [Example 68, hydrochloride]
RESULT: 7.89
